# Tested on: Escherichia coli TOP10
# protocolSummary: shrunken log2 fold change of peptide-encoding DNA abundance (4.5 h post-induction vs induction); higher = less antimicrobial activity (less host growth inhibition)
# measurementParameters: time post-induction: 4.5 h; library: site-saturation at positions 5, 18, 19, 20
Class assignment keyed on shrunken log2 fold change, ranges band A = under -0.05, band B = from -0.05 up to 0.2, band C = 0.2 and over

Q: Could you tell me which band RRIRYRPPRLPRPRPRPGQGPRP belongs to?
Result: band B

Q: Could you tell me which band RRIRYRPPRLPRPRPRPIKFPRP belongs to?
Result: band A

Q: Could you tell me which band RRIRPRPPRLPRPRPRPEWGPRP belongs to?
Result: band C

Q: Could you tell me which band RRIRNRPPRLPRPRPRPEAEPRP belongs to?
Result: band C

Q: Could you tell me which band RRIRHRPPRLPRPRPRPERKPRP belongs to?
Result: band B

Q: Could you tell me which band RRIRNRPPRLPRPRPRPDVNPRP belongs to?
Result: band B

---

# System: Escherichia coli TOP10
# protocolSummary: shrunken log2 fold change of peptide-encoding DNA abundance (4.5 h post-induction vs induction); higher = less antimicrobial activity (less host growth inhibition)
# measurementParameters: time post-induction: 4.5 h; library: site-saturation at positions 5, 18, 19, 20
Below, each entry is listed with its recorded shrunken log2 fold change.
Could you respond with only the numeric value?

Below, 5 sequences whose answers are already recorded.
| monomerSequence | shrunken log2 fold change |
| --- | --- |
| RRIRTRPPRLPRPRPRPQQCPRP | -0.0115 |
| RRIRWRPPRLPRPRPRPPLFPRP | 0.42 |
| RRIRQRPPRLPRPRPRPMMHPRP | -0.252 |
| RRIRMRPPRLPRPRPRPKNLPRP | -0.102 |
| RRIRARPPRLPRPRPRPIAHPRP | 0.13 |

Q: Look up and report measured shrunken log2 fold change for this entry: RRIRPRPPRLPRPRPRPEELPRP
Result: 0.0725

Q: Look up and report measured shrunken log2 fold change for this entry: RRIRFRPPRLPRPRPRPAVAPRP
Result: 0.196

Q: Look up and report measured shrunken log2 fold change for this entry: RRIRRRPPRLPRPRPRPQHFPRP
Result: 0.256

Q: Look up and report measured shrunken log2 fold change for this entry: RRIRTRPPRLPRPRPRPDNQPRP
Result: -0.337

Q: Look up and report measured shrunken log2 fold change for this entry: RRIRQRPPRLPRPRPRPLWEPRP
Result: 0.025

Q: Look up and report measured shrunken log2 fold change for this entry: RRIRLRPPRLPRPRPRPGYPPRP
Result: -0.361

Q: Look up and report measured shrunken log2 fold change for this entry: RRIRPRPPRLPRPRPRPTNAPRP
Result: 0.167

---

# Tested on: Escherichia coli TOP10;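 further: peptides expressed intracellularly from a pBAD plasmid library in pooled LB shake-flask culture, induced with 0.3% L-arabinose, DNA abundance read by NGS, three biological replicates, DESeq2 with apeglm shrinkage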
# protocolSummary: shrunken log2 fold change of peptide-encoding DNA abundance (4.5 h post-induction vs induction); higher = less antimicrobial activity (less host growth inhibition)
# measurementParameters: time post-induction: 4.5 h; library: site-saturation at positions 5, 18, 19, 20
Below, each entry is listed with its recorded shrunken log2 fold change.
Could you respond with only the numeric value?

| monomerSequence | reported |
| --- | --- |
| RRIRVRPPRLPRPRPRPLKPPRP | -0.0393 |
| RRIRIRPPRLPRPRPRPMTWPRP | -0.0244 |
| RRIRNRPPRLPRPRPRPEAVPRP | 0.0335 |
| RRIRDRPPRLPRPRPRPDNNPRP | -0.0748 |

Q: Look up and report measured shrunken log2 fold change for this entry: RRIRRRPPRLPRPRPRPGGPPRP
Result: 0.321

Q: Look up and report measured shrunken log2 fold change for this entry: RRIRERPPRLPRPRPRPLKKPRP
Result: 0.0403

Q: Look up and report measured shrunken log2 fold change for this entry: RRIRERPPRLPRPRPRPPDPPRP
Result: 0.106

Q: Look up and report measured shrunken log2 fold change for this entry: RRIRFRPPRLPRPRPRPYHTPRP
Result: -0.0117

Q: Look up and report measured shrunken log2 fold change for this entry: RRIRVRPPRLPRPRPRPNQQPRP
Result: 0.0476

Q: Look up and report measured shrunken log2 fold change for this entry: RRIRFRPPRLPRPRPRPKNDPRP
Result: -0.407

Q: Look up and report measured shrunken log2 fold change for this entry: RRIRKRPPRLPRPRPRPGLNPRP
Result: 0.0896

Q: Look up and report measured shrunken log2 fold change for this entry: RRIRVRPPRLPRPRPRPLIKPRP
Result: -0.206
